This section presents molecules with their documented pIC50 values.
study_system: Indoleamine 2,3-Dioxygenase (IDO1) in SKOV-3 cells (Homo sapiens)
Construct: endogenous in cells
run_description: SKOV-3 cellular indoleamine 2,3-dioxygenase assay
conditions: 50 ng/ml Interferon gamma, 100 μM L-Tryptophan, 24 hours, N-Formylkynurenin fluorescence, read-out: cell based activity (IC50)
pIC50: −log10 of the molar value.

> print(dat)
                  compound.structure.string                              study.system  reported.property        result
1  O=C(Nc1ccc(Cl)cn1)C(=O)N1CCC(c2ccnc3ccc(F)cc23)CC1  Indoleamine 2,3-Dioxygenase (IDO1) in SKOV-3 cells (Homo sapiens)              pIC50        > 7.00
2  O=C(Nc1cccc(C(F)(F)F)c1)C(=O)N1CCC(c2ccnc3ccc(F)cc23)CC1  Indoleamine 2,3-Dioxygenase (IDO1) in SKOV-3 cells (Homo sapiens)              pIC50  6.00 to 7.00
3  O=C(Nc1ccc(Cl)cn1)C(=O)N1CCC2(CC1)OCc1cc(C(F)(F)F)ccc12  Indoleamine 2,3-Dioxygenase (IDO1) in SKOV-3 cells (Homo sapiens)              pIC50        > 7.00
4  O=C(Nc1ccc(Cl)cc1F)C(=O)N1CCC=C(c2ccnc3ccc(F)cc23)CC1  Indoleamine 2,3-Dioxygenase (IDO1) in SKOV-3 cells (Homo sapiens)              pIC50        > 7.00

Query: # query: pIC50 of entry O=C(Nc1ccc(Cl)cc1)C(=O)N1CCC(c2ccnc3cc(Cl)ccc23)CC1
Result: > 7.00

Query: What does the data say about its pIC50? Entry: CN1C(=O)c2ccccc2C12CCN(C(=O)C(=O)Nc1ccc(Cl)cn1)CC2
Result: < 6.00

Query: Value lookup for pIC50; key = O=C(Nc1ccc(F)c(Cl)c1)C(=O)N1CCC(c2ccccc2)CC1
Result: < 6.00

Query: I am curious: what pIC50 value has been reported for Cc1nc(NC(=O)C(=O)N2CCC(c3ccnc4ccc(F)cc34)CC2)ccc1-c1cnn(C)c1 ?
Result: < 6.00

Query: What does the data say about its pIC50? Entry: O=C(Nc1ccc(Cl)cn1)C(=O)N1CCC(c2ccc(C(=O)O)c3ccccc23)CC1
Result: < 6.00

---

study_system: Indoleamine 2,3-Dioxygenase (IDO1) in SKOV-3 cells (Homo sapiens, UniProt P14902)
Construct: endogenous in cells
Sequence (P14902 whole entry): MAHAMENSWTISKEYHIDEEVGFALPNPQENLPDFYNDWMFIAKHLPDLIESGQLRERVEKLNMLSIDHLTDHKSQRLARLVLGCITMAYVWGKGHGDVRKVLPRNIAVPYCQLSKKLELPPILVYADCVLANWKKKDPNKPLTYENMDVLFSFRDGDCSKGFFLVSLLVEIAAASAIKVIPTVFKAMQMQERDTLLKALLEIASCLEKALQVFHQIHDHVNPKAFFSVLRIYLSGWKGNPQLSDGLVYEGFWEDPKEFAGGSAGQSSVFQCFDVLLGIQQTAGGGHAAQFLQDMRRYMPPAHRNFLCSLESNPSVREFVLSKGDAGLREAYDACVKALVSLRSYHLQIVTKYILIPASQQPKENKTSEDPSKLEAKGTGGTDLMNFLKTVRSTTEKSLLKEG
run_description: SKOV-3 cellular indoleamine 2,3-dioxygenase assay
conditions: 50 ng/ml Interferon gamma, 100 μM L-Tryptophan, 24 hours, N-Formylkynurenin fluorescence, read-out: cell based activity (IC50)
pIC50: −log10 of the molar value.
Here, each record is paired with measured pIC50 data.

> print(dat)
                  compound.structure.string                              study.system  reported.property  result
1  NS(=O)(=O)c1ccc(NC(=O)C(=O)N2CCC(c3ccnc4ccc(F)cc34)CC2)cc1  Indoleamine 2,3-Dioxygenase (IDO1) in SKOV-3 cells (Homo sapiens, UniProt P14902)              pIC50  < 6.00

Query: Look up pIC50: O=C(Nc1ccc(C(F)(F)F)c(Cl)c1)C(=O)N1CCC(c2ccnc3ccc(F)cc23)CC1
Result: < 6.00

Query: pIC50 for Cc1ccc(NC(=O)C(=O)N2CCC(c3ccnc4ccc(F)cc34)CC2)c(F)c1 ?
Result: > 7.00

Query: Endpoint output: pIC50 of O=C(Nc1cc(F)c(Cl)cc1F)C(=O)N1CCC(c2ccnc3ccc(F)cc23)CC1 . Value?
Result: > 7.00

Query: What value of measured pIC50 is listed for O=C(Nc1ccc(Cl)cc1F)C(=O)N1CCC(c2ccnc3ccc(F)cc23)CC1 ?
Result: > 7.00
